Origin of values: patent US20240277682A1

# testDetails: PK study of single ascending oral doses in healthy volunteers (Example 7)
# Format: in vivo, human
# reportedConditions: male, human, plasma; single oral dose 200 mg, fasted, n = 12, Median (Min-Max)
# Procedure: This was randomized, open-label, 4-period, crossover PK study of single ascending oral doses of Hydronidone in healthy volunteers. Ascending single oral doses of 200 mg, 400 mg, 600 mg and 800 mg of Hydronidone were given to 12 eligible, healthy male Chinese subjects, 26-38 years of age, satisfying all inclusion and exclusion criteria, and randomly divided into four dose groups, 3 subjects per group, under fasted conditions. […]
measurementName: Tmax (min)
Report the figure in min without appending any unit label.

Determine its reported Tmax: Cc1ccc(=O)n(-c2ccc(O)cc2)c1 [Hydronidone, N-(4-hydroxyphenyl)-5-Methyl-2-pyridone]
19.8
